System: CCRF S-180
Test: Antitumor activity against mouse S180 cells allografted in Kunming mouse assessed as tumor growth inhibition at 15 ug/kg, ip qd administered 24 hrs post challenge for 10 days
Type: functional
Details: CCRF S-180, ip, read-out: GI
quantity-measured: inhibition in vivo at 0.015 mg/kg (%)
One number for each entry, in %.

# annotated cases, reported inhibition in vivo at 0.015 mg/kg shown
CCCCCCCCCC[C@@H](O)[C@@H]1CC[C@@H]([C@H](O)CC[C@@H](O)[C@@H]2CC[C@@H](CCCCCCCCCC3=C[C@H](C)OC3=O)O2)O1 [SQUAMOSTATIN E] | 27.2
CCCCCCCCCC[C@H](O)[C@H]1CC[C@H]([C@H]2CC[C@H]([C@H](O)CCCCCCCCCCCCC3=C[C@H](C)OC3=O)O2)O1 [BULLANIN] | 42.3
CCCCCCCCCCCC[C@@H](O)[C@H]1CC[C@H]([C@H](O)CCCCCC(O)CCCCCCC2=C[C@H](C)OC2=O)O1 (stereo not given in full) | 43.9
CCCCCCCCCC[C@@H](O)[C@@H]1CC[C@@H]([C@@H]2CC[C@@H]([C@H](O)CCCCCCCCCC(O)CC3=CC(C)OC3=O)O2)O1 (stereo not given in full) [BULLATACIN] | 65.8

Bench note, CCRF S-180: entry CCCCCC[C@H](O)CCC[C@H](O)[C@H]1CC[C@H]([C@H](O)CC[C@H](O)[C@@H]2CC[C@@H](CCCCCCCCCC3=C[C@H](C)OC3=O)O2)O1 [SQUAMOSTATIN A] , its inhibition in vivo at 0.015 mg/kg = 52.7
